FYI, the data here is from ChEMBL document CHEMBL1201862.

Kindly state EC50 for each of the entries shown.
System: Streptococcus sp. 'group A'
measurement_protocol: Streptococcus pyogenes SK(-)GAS viability under kanamycin – luminescence, BacTiterGlo, confirmation, counter-screen for streptokinase expression inhibitor project, dose response (AID 1900)
Format: functional, organism-based
Where a name gives a salt, the structure may show the parent alone. Active and inactive are the calls of the source. Cut-off read from the data, not from the text of the source: actives have a measured EC50 and inactives only a lower limit.

Please review the entries below; each comes with its answer.
COc1cccc2c1C(=O)c1c(O)c3c(c(O)c1C2=O)C[C@@](O)(C(=O)CO)C[C@@H]3O[C@H]1C[C@H](N)[C@H](O)[C@H](C)O1 [DOXORUBICIN HYDROCHLORIDE] ... 518 nM (active)
Clc1ccc(CO/N=C(\Cn2ccnc2)c2ccc(Cl)cc2Cl)c(Cl)c1 [OXICONAZOLE NITRATE] ... 1920 nM (active)
O=C(Nc1ccc(Cl)c(Cl)c1)N1CC=C(c2ccccc2)CC1 ... 9920 nM (active)
Cc1cc(O)c(C(C)C)cc1C1(c2cc(C(C)C)c(O)cc2C)OC(=O)c2ccccc21 ... 1240 nM (active)

Kindly consider the entry below.
Inquiry: Consider the compound Cc1cccc(-n2nc(C(=O)c3ccco3)cc(-c3nc4ccccc4[nH]3)c2=N)c1 tested on Streptococcus sp. 'group A'; state its EC50.
Reply text: 2490 nM (active)
